Cited source for all entries: patent US20230227411A1

target-desc: human cGAS (residues 161-522) (Homo sapiens, UniProt Q8N884)
Construct: Recombinantly expressed purified human cGAS (residues 161-522) was used at 25 nM
Sequence (Q8N884 161-522): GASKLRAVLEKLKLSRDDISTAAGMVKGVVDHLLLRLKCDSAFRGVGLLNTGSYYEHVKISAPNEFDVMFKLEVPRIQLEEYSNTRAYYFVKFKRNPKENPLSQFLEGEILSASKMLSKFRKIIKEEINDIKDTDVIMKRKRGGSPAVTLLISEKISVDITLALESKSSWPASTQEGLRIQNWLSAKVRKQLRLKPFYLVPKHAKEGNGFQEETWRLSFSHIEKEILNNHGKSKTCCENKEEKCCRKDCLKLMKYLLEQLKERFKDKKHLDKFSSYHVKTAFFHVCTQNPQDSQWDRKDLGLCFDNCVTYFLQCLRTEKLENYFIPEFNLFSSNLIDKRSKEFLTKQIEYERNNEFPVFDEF
assay-details: Malachite Green assay to measure cGAS activity
measurement-conditions: coupled enzymatic assay, phosphate detection by Malachite Green; 25 nM cGAS, 80 μM ATP, 80 μM GTP, 100 nM ISD, 4 hour at RT
endpoint-name: IC50 (nM)

Please review the entries below; each comes with its answer.
- structure-string: "Cc1ccc(-c2cc(C(=O)O)c3c(c2)ncn3Cc2ccccn2)c(Cl)c1"
  target-desc: "human cGAS (residues 161-522) (Homo sapiens, UniProt Q8N884)"
  endpoint-name: "IC50"
  reported: 1760
- structure-string: "Cc1ccc(-c2cc(C(=O)O)c3c(c2)ncn3Cc2ccccc2)c(Cl)c1"
  target-desc: "human cGAS (residues 161-522) (Homo sapiens, UniProt Q8N884)"
  endpoint-name: "IC50"
  reported: 2410
- structure-string: "Cc1ccc(-c2cc(C(=O)O)c3c(c2)ncn3Cc2cccnc2)c(Cl)c1"
  target-desc: "human cGAS (residues 161-522) (Homo sapiens, UniProt Q8N884)"
  endpoint-name: "IC50"
  reported: 2070
- structure-string: "Cc1ccc(-c2cc(C(=O)O)c3c(c2)ncn3CC(F)(F)F)c(Cl)c1"
  target-desc: "human cGAS (residues 161-522) (Homo sapiens, UniProt Q8N884)"
  endpoint-name: "IC50"
  reported: 3290

a = CC(=O)NCCCn1cnc2cc(-c3ccc(C)cc3Cl)cc(C(=O)O)c21
b = Cc1ccc(-c2cc(C(=O)O)c3c(c2)ncn3-c2ccccc2)c(Cl)c1
Problem: Lab note: check whether a or b has the lower measured IC50. Pick one and reply with its label.
Result: b
